Where do the numbers come from? From paper PMC7819943.

# TARGET SYSTEM: OsWOX13 (Oryza sativa, UniProt Q5QMM3 1-267)
# Sequence: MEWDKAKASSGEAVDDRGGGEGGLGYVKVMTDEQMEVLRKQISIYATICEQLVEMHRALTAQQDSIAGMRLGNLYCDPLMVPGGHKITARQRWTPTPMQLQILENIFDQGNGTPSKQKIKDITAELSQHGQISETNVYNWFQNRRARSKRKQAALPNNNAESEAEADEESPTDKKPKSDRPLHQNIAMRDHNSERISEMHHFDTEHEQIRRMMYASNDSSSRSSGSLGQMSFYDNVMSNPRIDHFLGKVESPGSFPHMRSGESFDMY
# ASSAY TEXT: protein-binding microarray (RPBM); PBS, 2% BSA, 51.3 ng/ul salmon testes DNA, 50 uM zinc acetate, 200 nM TF, 25 C, 1 h; high values mean tight binding
# MEASUREMENT SETUP: protein: recombinant; tags: N-terminal polyhistidine and DsRed monomer fusion (pET32a); label: CyDye5-dUTP incorporated in the synthesized complementary strand; 3' TTTTT single-stranded linker to array surface; dsDNA, one strand shown
The full ranking holds about 35,000 sequences; the median of “fluorescence intensity (a.u.)” is about 10,000, and the highest 2% start at about 52,000. The sample as a whole holds a higher share of the highest values than the screen did.
Form field: binding signal (one value per entry).

SEQUENCE INPUT: TCGAAAATTGGTTTTGTTAATATACTAGGACTGATTTCAGCGGAGTCACCTAGTGCAG
VALUE TYPE: binding signal
OBSERVED: 6190 fluorescence intensity (a.u.)
//
SEQUENCE INPUT: TGTTGTGATTGGTTGAGAAATGTGGGTATGTGAGAAAATACGGAGTCACCTAGTGCAG
VALUE TYPE: binding signal
OBSERVED: 15200 fluorescence intensity (a.u.)

## Task Using the record for "GTTTGATTGGAGCAATGTCTCAATGGGTGAGAAGATGAGGCGGAGTCACCTAGTGCAG" , report its binding signal.
## Result 54300 fluorescence intensity (a.u.)

## Task Using the record for "TGGAGGGATTTGATTTGGAAAGGATTTGGATTCGGGATTGCGGAGTCACCTAGTGCAG" , report its binding signal.
## Result 3870 fluorescence intensity (a.u.)

## Task Using the record for "GTGTGTGATGGGTTAATCGATGTGCTATGTTATTGGTTTCCGGAGTCACCTAGTGCAG" , report its binding signal.
## Result 5310 fluorescence intensity (a.u.)

====

# TARGET SYSTEM: OsWOX13 (Oryza sativa, UniProt Q5QMM3 1-267)
# Sequence: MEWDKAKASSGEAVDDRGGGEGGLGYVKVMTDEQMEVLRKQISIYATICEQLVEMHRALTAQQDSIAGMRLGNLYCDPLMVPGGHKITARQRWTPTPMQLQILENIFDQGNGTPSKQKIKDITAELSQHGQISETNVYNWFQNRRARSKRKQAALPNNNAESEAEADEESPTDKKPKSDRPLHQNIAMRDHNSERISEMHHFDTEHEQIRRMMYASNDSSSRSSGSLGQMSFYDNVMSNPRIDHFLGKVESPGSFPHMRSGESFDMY
# ASSAY TEXT: protein-binding microarray (RPBM); PBS, 2% BSA, 51.3 ng/ul salmon testes DNA, 50 uM zinc acetate, 200 nM TF, 25 C, 1 h; high values mean tight binding
# MEASUREMENT SETUP: protein: recombinant; tags: N-terminal polyhistidine and DsRed monomer fusion (pET32a); label: CyDye5-dUTP incorporated in the synthesized complementary strand; 3' TTTTT single-stranded linker to array surface; dsDNA, one strand shown
Over roughly 35,000 sequences, “fluorescence intensity (a.u.)” has its median near 10,000; the highest 2% begin near 52,000. What follows is part of a selection rich in the highest values, with near analogues and random picks from the rest.
VALUE TYPE: binding signal

SEQUENCE INPUT: AATATTTATGTTAATTATATATAGCTAATTATGATAATAGCGGAGTCACCTAGTGCAG
TARGET SYSTEM: OsWOX13 (Oryza sativa, UniProt Q5QMM3 1-267)
OBSERVED: 18800 fluorescence intensity (a.u.)
//
SEQUENCE INPUT: CCAATTTAATAAAATAAATTGATACTATAAATATTACAATCGGAGTCACCTAGTGCAG
TARGET SYSTEM: OsWOX13 (Oryza sativa, UniProt Q5QMM3 1-267)
OBSERVED: 9090 fluorescence intensity (a.u.)
//
SEQUENCE INPUT: ACAATCTTATAGCTAATTTATTATATATGTTAGCTTTAAGCGGAGTCACCTAGTGCAG
TARGET SYSTEM: OsWOX13 (Oryza sativa, UniProt Q5QMM3 1-267)
OBSERVED: 4320 fluorescence intensity (a.u.)

## Task Using the record for "AATTAATAATTGCAATAGTTAGGTTATGAAGACTTCAGAGCGGAGTCACCTAGTGCAG" , report its binding signal.
## Result 15300 fluorescence intensity (a.u.)

## Task Using the record for "TTGCTAATTAATTTATGTTAATTAGTAGCTAACCTAGCTGCGGAGTCACCTAGTGCAG" , report its binding signal.
## Result 65200 fluorescence intensity (a.u.)

====

# TARGET SYSTEM: OsWOX13 (Oryza sativa, UniProt Q5QMM3 1-267)
# Sequence: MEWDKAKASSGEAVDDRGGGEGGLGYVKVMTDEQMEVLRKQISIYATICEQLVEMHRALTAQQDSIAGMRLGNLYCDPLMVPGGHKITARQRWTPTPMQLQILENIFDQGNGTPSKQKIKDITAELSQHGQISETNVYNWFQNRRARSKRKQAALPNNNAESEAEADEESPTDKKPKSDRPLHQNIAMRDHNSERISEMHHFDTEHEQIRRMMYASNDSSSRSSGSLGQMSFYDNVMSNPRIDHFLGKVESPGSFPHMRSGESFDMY
# ASSAY TEXT: protein-binding microarray (RPBM); PBS, 2% BSA, 51.3 ng/ul salmon testes DNA, 50 uM zinc acetate, 200 nM TF, 25 C, 1 h; high values mean tight binding
# MEASUREMENT SETUP: protein: recombinant; tags: N-terminal polyhistidine and DsRed monomer fusion (pET32a); label: CyDye5-dUTP incorporated in the synthesized complementary strand; 3' TTTTT single-stranded linker to array surface; dsDNA, one strand shown
In all, about 35,000 sequences were measured (“fluorescence intensity (a.u.)”: median about 10,000, highest 2% from about 52,000 on). The sample holds the highest values, similar sequences and a random draw of the others, so the mix is not that of the screen.
VALUE TYPE: binding signal

SEQUENCE INPUT: TCTAATGATAAATCATTTATCACTAATTGTAAGAGTGGTACGGAGTCACCTAGTGCAG
VALUE TYPE: binding signal
OBSERVED: 53400 fluorescence intensity (a.u.)

## Task Using the record for "GGTGTGTTTATAATTAATATACAGATTGTGTCACATTGTTCGGAGTCACCTAGTGCAG" , report its binding signal.
## Result 8600 fluorescence intensity (a.u.)

## Task Using the record for "ATTTAATGTACAATCATGCTTTTCCGTACTAAATTTTGTTCGGAGTCACCTAGTGCAG" , report its binding signal.
## Result 14800 fluorescence intensity (a.u.)

## Task Using the record for "CTAAATTTGTAATTGTAATGTACTACTTTAATCCTTCGTACGGAGTCACCTAGTGCAG" , report its binding signal.
## Result 53100 fluorescence intensity (a.u.)

## Task Using the record for "TCTAAATCATTTTAATCATGGTACAGATCTACTGATAATACGGAGTCACCTAGTGCAG" , report its binding signal.
## Result 7740 fluorescence intensity (a.u.)

====

# TARGET SYSTEM: OsWOX13 (Oryza sativa, UniProt Q5QMM3 1-267)
# Sequence: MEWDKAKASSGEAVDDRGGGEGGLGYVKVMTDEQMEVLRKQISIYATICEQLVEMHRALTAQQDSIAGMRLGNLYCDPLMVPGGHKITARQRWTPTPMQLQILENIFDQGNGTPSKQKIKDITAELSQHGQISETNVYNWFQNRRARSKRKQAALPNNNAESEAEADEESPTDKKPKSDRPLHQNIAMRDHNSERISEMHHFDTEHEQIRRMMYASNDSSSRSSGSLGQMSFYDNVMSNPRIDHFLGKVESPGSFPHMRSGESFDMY
# ASSAY TEXT: protein-binding microarray (RPBM); PBS, 2% BSA, 51.3 ng/ul salmon testes DNA, 50 uM zinc acetate, 200 nM TF, 25 C, 1 h; high values mean tight binding
# MEASUREMENT SETUP: protein: recombinant; tags: N-terminal polyhistidine and DsRed monomer fusion (pET32a); label: CyDye5-dUTP incorporated in the synthesized complementary strand; 3' TTTTT single-stranded linker to array surface; dsDNA, one strand shown
The full ranking holds about 35,000 sequences; the median of “fluorescence intensity (a.u.)” is about 10,000, and the highest 2% start at about 52,000. This is one part of a sample in which the highest values are shown more often than they occur.
Form field: binding signal (one value per entry).

// known answers, use as guide
SEQUENCE INPUT: ATTTCTTAATTTAATGCTATTCTGACTCCTTGCACCTCTACGGAGTCACCTAGTGCAG
VALUE TYPE: binding signal
OBSERVED: 12300 fluorescence intensity (a.u.)
--
SEQUENCE INPUT: ACTAGCTAAATTATACCATGTTAACTTATACTATATTAGTCGGAGTCACCTAGTGCAG
VALUE TYPE: binding signal
OBSERVED: 9700 fluorescence intensity (a.u.)
--
SEQUENCE INPUT: GTACAAAATTATCTAAAATTAACTACAAAATTATGTACTACGGAGTCACCTAGTGCAG
VALUE TYPE: binding signal
OBSERVED: 12800 fluorescence intensity (a.u.)
--
SEQUENCE INPUT: AACTTAATTAAATTTAAAGCAGTTTGATTTTGACTAAAGTCGGAGTCACCTAGTGCAG
VALUE TYPE: binding signal
OBSERVED: 31800 fluorescence intensity (a.u.)
--
SEQUENCE INPUT: GATAATGGTAGTGATTGGTTGAGGCTTGAGAGTAGATGTACGGAGTCACCTAGTGCAG
VALUE TYPE: binding signal
OBSERVED: 30600 fluorescence intensity (a.u.)
--
SEQUENCE INPUT: CTTAATTAATAGGGTATTAATAACCTCCCTAAAGTCATTGCGGAGTCACCTAGTGCAG
VALUE TYPE: binding signal
OBSERVED: 60200 fluorescence intensity (a.u.)
--
SEQUENCE INPUT: AAATAACTGGTGGATATTTGTACGCTGCCCCTGAGGAACTCGGAGTCACCTAGTGCAG
VALUE TYPE: binding signal
OBSERVED: 3900 fluorescence intensity (a.u.)
--
SEQUENCE INPUT: TTCTAATAATTTGATATTAGGTCATTCCCTAATATTCGTGCGGAGTCACCTAGTGCAG
VALUE TYPE: binding signal
OBSERVED: 25000 fluorescence intensity (a.u.)

## Task Using the record for "TAACTAATTATGTACTAACAAATTAGCTAGTCTACCATGCCGGAGTCACCTAGTGCAG" , report its binding signal.
## Result 56600 fluorescence intensity (a.u.)
